- Assay Comment: Solubilization of 1 mg/mL peptides in culture medium, DMSO or urea
- Format: physicochemical
- Condition Label: 1 mg/mL peptide; read-out: Solubility, Complete medium
Where a SMILES comes first, the peptide text is derived from it.
Readout Kind: solubility

In the examples that follow, each entry is paired with its recorded solubility.
Compound	Result
CC(C)C[C@H](NC(=O)[C@H](Cc1ccccc1)NC(=O)[C@H](C)NC(=O)[C@H](CC(C)C)NC(=O)[C@@H](NC(=O)[C@H](Cc1ccccc1)NC(=O)[C@H](CC(C)C)NC(=O)[C@H](Cc1c[nH]cn1)NC(=O)[C@H](CS)NC(=O)[C@H](CS)NC(=O)[C@H](CCCNC(=N)N)NC(=O)[C@H](Cc1c[nH]cn1)NC(=O)[C@H](C)N)[C@@H](C)O)C(=O)N[C@@H](Cc1ccccc1)C(=O)N[C@@H](C)C(=O)O [compound 21] (H-AHRCCHLFTLAFLFA-OH; N-terminus and C-terminus assumed)	< 1000 µg/mL
CC[C@H](C)[C@H](NC(=O)[C@H](CC(C)C)NC(=O)[C@H](Cc1ccccc1)NC(=O)CNC(=O)[C@@H](NC(=O)[C@H](CC(C)C)NC(=O)[C@H](C)NC(=O)[C@H](CO)NC(=O)[C@H](CS)NC(=O)CN)C(C)C)C(=O)N[C@@H](CC(C)C)C(=O)N[C@@H](CC(C)C)C(=O)N[C@@H](CS)C(=O)N[C@@H](CS)C(=O)N[C@@H](CCSC)C(=O)O [compound 26] (H-GCSALVGFLILLCCM-OH; N-terminus and C-terminus assumed)	< 1000 µg/mL

Problem: Please report the recorded solubility for CC(C)C[C@H](NC(=O)CNC(=O)[C@H](C)NC(=O)[C@H](CS)NC(=O)[C@@H](NC(=O)[C@H](Cc1ccccc1)NC(=O)[C@H](Cc1ccccc1)NC(=O)[C@H](CO)NC(=O)[C@@H](N)CCC(=O)O)C(C)C)C(=O)N[C@@H](CS)C(=O)N[C@@H](CCCNC(=N)N)C(=O)N[C@@H](CC(C)C)C(=O)N[C@@H](CCC(N)=O)C(=O)N1CCC[C@H]1C(=O)N[C@@H](Cc1ccc(O)cc1)C(=O)O [compound 23] (H-ESFFVCAGLCRLQPY-OH; N-terminus and C-terminus assumed) .
Result: < 1000 µg/mL

###

Recorded solubility for the following sequences
- Assay Comment: Solubilization of 1 mg/mL peptides in culture medium, DMSO or urea
- Assay type: physicochemical
- Condition Label: 1 mg/mL peptide; read-out: Solubility, 0.8 M UREA
Where no end group is shown, it is not given here.

Below are worked cases with known answers.
                           chain        result
0  FSWYFRHHRLMVAGP [compound 18]  > 1000 µg/mL
1  HGFFAGGLAHWHGHR [compound 20]  > 1000 µg/mL
2  RGWILDVVYLYPGPL [compound 17]  < 1000 µg/mL

For the next question, use this sequence.
Problem: Given the sequence WSLLRIVYNRHSHSK [compound 16] , what is its reported solubility?
Result: > 1000 µg/mL

###

- Assay Comment: Solubilization of 1 mg/mL peptides in culture medium, DMSO or urea
- Assay type: physicochemical
- Condition Label: 1 mg/mL peptide; read-out: Solubility, 0.8 M UREA
Where a SMILES comes first, the peptide text is derived from it.
Readout Kind: solubility

Problem: Which solubility reading was recorded for the compound CC(C)[C@H](NC(=O)[C@H](C)NC(=O)[C@@H](NC(=O)[C@@H]1CCCN1C(=O)[C@H](Cc1c[nH]cn1)NC(=O)[C@H](CCCNC(=N)N)NC(=O)[C@H](CCCNC(=N)N)NC(=O)[C@H](Cc1ccccc1)NC(=O)[C@H](Cc1c[nH]cn1)NC(=O)[C@H](Cc1ccccc1)NC(=O)[C@H](CS)NC(=O)[C@H](CCCNC(=N)N)NC(=O)[C@H](Cc1c[nH]cn1)NC(=O)[C@@H](N)CS)C(C)C)C(=O)N[C@@H](Cc1ccccc1)C(=O)O [compound 6] (H-CHRCFHFRRHPVAVF-OH; N-terminus and C-terminus assumed) ?
Result: > 1000 µg/mL
